The compounds listed here are annotated with their solubility thermodynamic.
test: Thermodynamic aqueous solubility at pH 7.4
Use µM as the unit, but write only the number.

{"cpd smiles": "CNC(=O)c1cc(Nc2ccccc2)cc(-c2ccnc(NC(C)=O)c2)c1", "solubility thermodynamic, µM": 5.8}

Shift focus to the following entry.
For `CC(=O)Nc1cc(Nc2ccccc2)cc(-c2ccnc(NC(=O)C3CCOCC3)c2)c1` , write its solubility thermodynamic. 1.4

----------
assay: Thermodynamic aqueous solubility at pH 7.4
The molecules listed here are annotated with their solubility thermodynamic.

For `CC(=O)N(C)c1cc(Nc2ccccc2)cc(-c2ccnc(NC(=O)C3CCOCC3)c2)c1` , write its solubility thermodynamic. < 1 µM

For `CNC(=O)c1cc(Nc2ccc(OC)cc2)cc(-c2ccnc(NC(=O)C3CCOCC3)c2)c1` , write its solubility thermodynamic. < 1 µM

For `CN(CC1OCCO1)C(=O)c1cc(Nc2ccccc2)cc(-c2ccnc(NC(=O)C3CC3)c2)c1` , write its solubility thermodynamic. < 1 µM

For `CNC(=O)c1cc(Nc2ccccc2)cc(-c2ccnc(NC(=O)C3CCN(C)CC3)c2)c1` , write its solubility thermodynamic. > 1900 µM

For `O=C(CO)Nc1cc(Nc2ccccc2)cc(-c2ccnc(NC(=O)C3CCOCC3)c2)c1` , write its solubility thermodynamic. < 1 µM

----------
The compounds listed here are annotated with their solubility thermodynamic.
experiment: Thermodynamic aqueous solubility at pH 7.4

{"compound": "CNC(=O)c1cc(Nc2cccc(F)c2)cc(-c2ccnc(NC(=O)C3CCOCC3)c2)c1", "solubility thermodynamic": "< 1 µM"}
{"compound": "CS(=O)(=O)Nc1cc(Nc2ccccc2)cc(-c2ccnc(NC(=O)C3CCOCC3)c2)c1", "solubility thermodynamic": "< 1 µM"}
{"compound": "O=C(NCC1OCCO1)c1cc(Nc2ccccc2)cc(-c2ccnc(NC(=O)C3CC3)c2)c1", "solubility thermodynamic": "< 1 µM"}
{"compound": "O=C(Nc1cc(-c2cccc(Nc3ccccc3)c2)ccn1)C1CCOC1 (racemic)", "solubility thermodynamic": "< 1 µM"}
{"compound": "CNC(=O)c1cc(Nc2ccccc2)cc(-c2ccnc(NC(=O)C3CC3)c2)c1", "solubility thermodynamic": "< 1 µM"}

For `CN(C)CCCNC(=O)c1cc(Nc2ccccc2)cc(-c2ccnc(NC(=O)C3CC3)c2)c1` , write its solubility thermodynamic. > 1700 µM

For `CNC(=O)c1cc(Nc2ccc(F)cc2)cc(-c2ccnc(NC(=O)C3CCOCC3)c2)c1` , write its solubility thermodynamic. 1 µM

For CNC(=O)c1cccc(-c2ccnc(NC(=O)C3CCOC3)c2)c1 (racemic) , write its solubility thermodynamic. > 690 µM

For `CNC(=O)c1cc(Nc2ccc(F)cc2)cc(-c2cc(NC(=O)C3CCOCC3)ncn2)c1` , write its solubility thermodynamic. 6 µM

For `CN(C)CCNC(=O)c1cc(Nc2ccccc2)cc(-c2ccnc(NC(=O)C3CC3)c2)c1` , write its solubility thermodynamic. 59 µM

For `NC(=O)CNC(=O)c1cc(Nc2ccccc2)cc(-c2ccnc(NC(=O)C3CC3)c2)c1` , write its solubility thermodynamic. 7.6 µM

For `CNC(=O)c1cc(Nc2ccc(F)cc2)cc(-c2cc(NC(=O)C3CCOCC3)ncc2Cl)c1` , write its solubility thermodynamic. < 1 µM
